Target: T1, soluble cynomolgus monkey TNF-alpha (cynomolgus monkey, UniProt P79337 77-233)
T1 construct: also called Cynomolgus TNF; cyno-TNF-alpha
T1 sequence (P79337 77-233 limits assumed): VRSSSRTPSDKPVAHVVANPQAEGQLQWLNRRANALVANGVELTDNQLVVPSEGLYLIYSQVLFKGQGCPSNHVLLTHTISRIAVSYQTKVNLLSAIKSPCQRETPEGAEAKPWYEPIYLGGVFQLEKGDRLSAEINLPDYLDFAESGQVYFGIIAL
Experiment: competition ELISA: VHH mixed with cynomolgus TNF-alpha, binding to coated etanercept (TNFR2-Fc)
pEC50: −log10 of the molar value.
Recorded measurements of pEC50, one per entry

{"columns": ["binder", "pEC50"],
 "data": [
  ["Q65D3 (VHH, not shown: small tags and cut ends, Family 1; purified from E. coli) VHH: EVQLVESGGGLVQPGGSLRLSCVASGFDFSSHWMYWVRQAPGKGLEWVSEINTNGLITKYADSTKGRFTVSRDNAANMLNLEMTSLEPEDTALYYCARNERGLNKGQGTQVTVSS", 9.35],
  ["Q65F6 (VHH, not shown: small tags and cut ends, Family 2; purified from E. coli) VHH: EVQLVESGGGLVQPGGSLRLSCTASGFDFGIHWMYWVRQAPGKELEWVAEINTNGLITLYSDSVRGRFTASRDNANNALFLQMNDLKFEDTAVYYCAKSRNGAAKGQGTQVTVSS", 7.62],
  ["Q62E10 (VHH, not shown: small tags and cut ends, Family 2; purified from E. coli) VHH: QVQLVESGGGLVQPGGSLRLSCTTSGLDFGIHWMYWFRQAPGKELEWVAEINTNALITKYADSVKGRFTISRDNAKNTLFLQMNDLKSEDTAVYYCSNTQNGAAKGQGVQVTVSS", 8.92],
  ["Q65C7 (VHH, not shown: small tags and cut ends, Family 1; purified from E. coli) VHH: EVQLVESGGGLVQPGRSLRLSCTASGFDFSSHWMYWVRQAPGKGLEWVSEINTNGLITKYADFVKGRFTVSRDNAANTLYLEITRLEPEDTALYYCARNQKGLNKGQGTQVTVSS", 9.49],
  ["Q65B1 (VHH, not shown: small tags and cut ends, Family 1; purified from E. coli; parent of the ID series) VHH: EVQLVESGGGLVQPGGSLKLSCAASGFDFSSHWMYWVRQAPGKELEWLSEINTNGLITKYGDSVKGRFTVSRNNAANKMYLELTRLEPEDTALYYCARNQKGLNKGQGTQVTVSS", 9.35],
  ["Q65E12 (VHH, not shown: small tags and cut ends, Family 2; purified from E. coli) VHH: EVQLVESGGGLVQPGGSLRLSCSASGFDFSIHWMYWVRQAPGKELEWVAEINTNGLITLYADSVKGRFTASRDNAKNALFLQMNDLKFEDTAVYYCAKSRNGAAGGQGTQVTVSS", 7.19],
  ["Q62F2 (VHH, not shown: small tags and cut ends, Family 1; purified from E. coli) VHH: QVQLVESGGGLVQPGGSLRLSCAASGFDFNSHWMYWVRQAPGKGLEWVSEINTNGLITNYVDSVKGRFTVSRDNAANTLYLEMTSLKPEDTALYYCARNQKGLNKGQGTQVTVSS", 8.89]
]}
